Hey, just so you know, these numbers are from PubChem BioAssay (Tox21).

# assay explanation: qHTS assay to identify small molecule agonists of the constitutive androstane receptor (CAR) signaling pathway - cell viability counter screen (AID 1224836); also: nearly all actives have a fitted effect of over 45% in size; also: potency is read from the fitted curve at half-maximal effect
# test settings: HepG2-CYP2B6-hCAR viability, CellTiter-Fluor, 23 h, PK11195 added to every well; series mostly up to 92.4 µM
Results filed as inconclusive are left out. Activity calls are given as the source filed them. Calls follow the shape of the dose curve; as a rule, active = well fitted cell-killing curve with a large enough effect in the repeat runs; inconclusive = weak or mixed curves, or effect the other way; inactive = flat fitted curve, though single readings scatter.
measurement type: Potency

Below, 5 compounds whose answers are already recorded.
O=C(c1ccc(O)cc1O)c1ccc(O)cc1O
inactive
CC(C)(C)c1ccc(C(=O)O)cc1
inactive
CC(C)(C)c1ccc(C(=O)CCCN2CCC(OC(c3ccccc3)c3ccccc3)CC2)cc1
29.8 µM (active)
O=c1cccccc1O
inactive
CCCCCCCC[P+](CCCCCCCC)(CCCCCCCC)CCCCCCCC
1.92 µM (active)

Task item: Need Potency, item COC(=O)C1=C(C)NC(C)=C(C(=O)OCCc2ccc(N3CCN(C(c4ccccc4)c4ccccc4)CC3)cc2)C1c1cccc([N+](=O)[O-])c1 (configuration not stated)
Reply: inactive

Task item: Need Potency, item CCCCN(CCCC)C(=O)N(CCCC)CCCC
Reply: inactive

Task item: Need Potency, item CCCCC(CC)COC(=O)c1ccccc1C(=O)O (configuration not stated)
Reply: inactive

Task item: Need Potency, item CCCCCCOC(=O)c1ccc(O)cc1
Reply: inactive

Task item: Need Potency, item NNc1nc(-c2ccc(N)cc2)cs1
Reply: inactive
